Test system: HCI-010 (organoid from a breast cancer xenograft)
ASSAY REMARKS: CTG-3D luminescence at 96 h relative to day-0 seeding control (ratio to day 0); higher = more growth / less cytotoxicity; PDxO 3D drug screen, 96 h, CTG-3D normalised to day-0 seeding control.
TEST SETTINGS: 100 µM; days in culture: 52
Reported CTG-3D luminescence at 96 h values are given for each entry in this list.
MEASURED PROPERTY: CTG-3D luminescence at 96 h

INSERT INTO results (molecule, subject_of_test, experimental_result) VALUES
  ('C[C@@H]1COCCN1c1cc(C2([S@](C)(=N)=O)CC2)nc(-c2cc[nH]c3nccc2-3)n1 [ceralasertib]', 'HCI-010', 0.238),
  ('CN(Cc1cnc2nc(N)nc(N)c2n1)c1ccc(C(=O)N[C@@H](CCC(=O)O)C(=O)O)cc1 [methotrexate]', 'HCI-010', 2.52),
  ('C/C=C1\NC(=O)[C@H]2CSSCC/C=C/[C@H](CC(=O)N[C@H](C(C)C)C(=O)N2)OC(=O)[C@H](C(C)C)NC1=O [romidepsin]', 'HCI-010', -0.00333),
  ('CC1(C)CCC(c2ccc(Cl)cc2)=C(CN2CCN(c3ccc(C(=O)NS(=O)(=O)c4ccc(N[C@H](CCN5CCOCC5)CSc5ccccc5)c(S(=O)(=O)C(F)(F)F)c4)cc3)CC2)C1 [navitoclax]', 'HCI-010', 0.0084);

src = the supplement of paper PMC8882468
